# assayed.target: furin, P09958;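 further: purified furin at 1:10 enzyme:substrate in 50 mM HEPES pH 7.5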
# Sequence (P09958 whole entry): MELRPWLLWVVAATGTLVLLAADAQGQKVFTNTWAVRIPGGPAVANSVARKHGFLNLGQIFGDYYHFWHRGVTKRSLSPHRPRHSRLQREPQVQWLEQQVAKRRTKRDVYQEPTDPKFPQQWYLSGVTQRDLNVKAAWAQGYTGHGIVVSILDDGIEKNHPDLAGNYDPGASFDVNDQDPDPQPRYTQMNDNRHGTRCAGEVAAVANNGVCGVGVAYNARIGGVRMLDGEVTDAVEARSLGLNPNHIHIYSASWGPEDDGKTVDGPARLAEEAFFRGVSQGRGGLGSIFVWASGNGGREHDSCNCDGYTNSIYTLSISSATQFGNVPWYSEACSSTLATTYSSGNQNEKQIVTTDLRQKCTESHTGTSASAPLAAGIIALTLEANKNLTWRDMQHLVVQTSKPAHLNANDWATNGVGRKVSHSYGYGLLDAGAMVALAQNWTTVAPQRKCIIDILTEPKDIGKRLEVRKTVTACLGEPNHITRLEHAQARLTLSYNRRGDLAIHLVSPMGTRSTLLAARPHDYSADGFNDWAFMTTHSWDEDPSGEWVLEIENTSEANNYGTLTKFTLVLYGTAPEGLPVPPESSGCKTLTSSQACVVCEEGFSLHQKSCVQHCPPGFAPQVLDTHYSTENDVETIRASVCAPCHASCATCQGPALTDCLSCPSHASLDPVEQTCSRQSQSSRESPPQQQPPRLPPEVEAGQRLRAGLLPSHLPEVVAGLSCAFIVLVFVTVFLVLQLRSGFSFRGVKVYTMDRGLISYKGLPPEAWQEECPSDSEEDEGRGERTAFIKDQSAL
# assay.info: furin cleavage Z-score vs untreated control; higher = more cleavage, active = 3.5 or more, inactive = 1 or less, 8 variable residues between constant flanks
# protocol.conditions: 30 min
Some of the results follow. No count for the full screen is at hand.
measurement.kind: furin cleavage Z-score

input_sequence="CASTPCSLHLAGNASASA [HC2525]" observed_measurement=1.05
input_sequence="CALLARGGRAAGNASASA [HC1626]" observed_measurement=3.52
input_sequence="CAEVPCHRPYAGNASASA [HC2409]" observed_measurement=1.01
input_sequence="CATPSRMIRTAGNASASA [FS-1425]" observed_measurement=5.33
